System: Aspergillus flavus
experiment-description: Antifungal activity against Aspergillus flavus ATCC 16870 assessed as growth inhibition measured after 24 hrs by two-fold broth dilution method
Type: functional
measurement-conditions: ATCC 16870, 24 h
assay-readout: MIC (µM)
Kindly answer with a numeric value in µM, unit omitted.

// worked examples, MIC included
O=C(Nc1ccc(F)c(Cl)c1)[C@H](O)[C@@H](O)C(=O)N1CCC2(CCNC2=O)CC1 : 155
O=C(Nc1ccccc1)[C@H](O)[C@@H](O)C(=O)N1CCC2(CCNC2=O)CC1 : 1420
COc1cccc(NC(=O)[C@H](O)[C@@H](O)C(=O)N2CCC3(CCNC3=O)CC2)c1 : 650

INPUT: Consider the molecule shown here: "Cc1ccc(NC(=O)[C@H](O)[C@@H](O)C(=O)N2CCC3(CCNC3=O)CC2)cc1" What is its recorded MIC?
OUTPUT: 170

###

Tested on: Aspergillus flavus
experiment-description: Antifungal activity against Aspergillus flavus ATCC 16870 assessed as growth inhibition measured after 24 hrs by two-fold broth dilution method
Type: functional
measurement-conditions: ATCC 16870, 24 h
// MIC lookup, one value per entry
Kindly answer with a numeric value in µM, unit omitted.

INPUT: Record "O=C(Nc1ccc(Cl)cc1Cl)[C@H](O)[C@@H](O)C(=O)N1CCC2(CCNC2=O)CC1" : what is its MIC with Aspergillus flavus?
OUTPUT: 300

INPUT: Now this one: "O=C(Nc1cc(C(F)(F)F)cc(C(F)(F)F)c1)[C@H](O)[C@@H](O)C(=O)N1CCC2(CCNC2=O)CC1"
OUTPUT: 515

INPUT: Now this one: "O=C(Nc1ccc(F)cc1F)[C@H](O)[C@@H](O)C(=O)N1CCC2(CCNC2=O)CC1"
OUTPUT: 320

INPUT: Now this one: "O=C(Nc1ccc(Br)cc1)[C@H](O)[C@@H](O)C(=O)N1CCC2(CCNC2=O)CC1"
OUTPUT: 150

INPUT: Now this one: "Cc1ccccc1NC(=O)[C@H](O)[C@@H](O)C(=O)N1CCC2(CCNC2=O)CC1"
OUTPUT: 1360

INPUT: Now this one: "O=C(Nc1ccc(F)cc1)[C@H](O)[C@@H](O)C(=O)N1CCC2(CCNC2=O)CC1"
OUTPUT: 340

INPUT: Now this one: "O=C(Nc1ccccc1Cl)[C@H](O)[C@@H](O)C(=O)N1CCC2(CCNC2=O)CC1"
OUTPUT: 1290

INPUT: Now this one: "COc1ccc(NC(=O)[C@H](O)[C@@H](O)C(=O)N2CCC3(CCNC3=O)CC2)cc1"
OUTPUT: 164

INPUT: Now this one: "O=C(Nc1ccc(Cl)cc1)[C@H](O)[C@@H](O)C(=O)N1CCC2(CCNC2=O)CC1"
OUTPUT: 323

###

// fractional inhibitory concentration index (FICI) lookup, one value per entry
System: Cryptococcus neoformans
experiment-description: Antifungal activity against Cryptococcus neoformans ATCC 32719 assessed as fractional inhibitory concentration index after 24 hrs in presence of fluconazole by two-dimensional broth microdilution checkboard assay
Type: functional
I'd appreciate a reply containing only the number, no unit.

INPUT: Consider the compound shown here: "O=C(Nc1ccc(F)c(Cl)c1)[C@H](O)[C@@H](O)C(=O)N1CCC2(CCNC2=O)CC1" What is its recorded fractional inhibitory concentration index (FICI)?
OUTPUT: 2.3

INPUT: Now this one: "COc1ccc(NC(=O)[C@H](O)[C@@H](O)C(=O)N2CCC3(CCNC3=O)CC2)cc1"
OUTPUT: 1.5

INPUT: Now this one: "O=C(Nc1cc(C(F)(F)F)cc(C(F)(F)F)c1)[C@H](O)[C@@H](O)C(=O)N1CCC2(CCNC2=O)CC1"
OUTPUT: 3

INPUT: Now this one: "O=C(Nc1ccc(Cl)cc1)[C@H](O)[C@@H](O)C(=O)N1CCC2(CCNC2=O)CC1"
OUTPUT: 2

###

Tested on: Aspergillus flavus
experiment-description: Antifungal activity against Aspergillus flavus ATCC 16870 assessed as growth inhibition measured after 24 hrs by two-fold broth dilution method
Format: functional
measurement-conditions: ATCC 16870, 24 h
Simple rule here: MIC less than 200 µM is criterion met, otherwise criterion not met.

O=C(Nc1ccc([N+](=O)[O-])cc1)[C@H](O)[C@@H](O)C(=O)N1CCC2(CCNC2=O)CC1 : criterion not met
OC(Cn1cncn1)(Cn1cncn1)c1ccc(F)cc1F [FLUCONAZOLE] : criterion not met
O=C(Nc1cccc(Br)c1)[C@H](O)[C@@H](O)C(=O)N1CCC2(CCNC2=O)CC1 : criterion not met
O=C(Nc1ccc(F)c(F)c1)[C@H](O)[C@@H](O)C(=O)N1CCC2(CCNC2=O)CC1 : criterion not met
O=C(Nc1cccc(C(F)(F)F)c1)[C@H](O)[C@@H](O)C(=O)N1CCC2(CCNC2=O)CC1 : criterion met
COc1ccccc1NC(=O)[C@H](O)[C@@H](O)C(=O)N1CCC2(CCNC2=O)CC1 : criterion not met

INPUT: For this molecule, is MIC lower than 200 µM? NC(=O)OC[C@H](O)[C@@H](O)[C@H](N)C(=O)N[C@H](C(=O)O)[C@H]1O[C@@H](n2cc(CO)c(=O)[nH]c2=O)[C@H](O)[C@@H]1O [POLYOXIN B]
OUTPUT: criterion met

INPUT: Now this one: "O=C(Nc1ccccc1F)[C@H](O)[C@@H](O)C(=O)N1CCC2(CCNC2=O)CC1"
OUTPUT: criterion not met

###

Tested on: Bacillus spizizenii
experiment-description: Antibacterial activity against Bacillus subtilis ATCC 6633 assessed as growth inhibition measured after 24 hrs by two-fold broth dilution method
Assay type: functional
measurement-conditions: ATCC 6633, 24 h
assay-readout: log10 of MIC (log10 of the value in µM)
log10 MIC, µM

O=C(Nc1ccc(F)cc1F)[C@H](O)[C@@H](O)C(=O)N1CCC2(CCNC2=O)CC1 : 2.20
O=C(Nc1ccccc1Cl)[C@H](O)[C@@H](O)C(=O)N1CCC2(CCNC2=O)CC1 : 2.81
Cc1ccccc1NC(=O)[C@H](O)[C@@H](O)C(=O)N1CCC2(CCNC2=O)CC1 : 2.53
O=C(Nc1ccccc1F)[C@H](O)[C@@H](O)C(=O)N1CCC2(CCNC2=O)CC1 : 2.83
O=C(Nc1cccc(C(F)(F)F)c1)[C@H](O)[C@@H](O)C(=O)N1CCC2(CCNC2=O)CC1 : 2.18

INPUT: Consider the molecule shown here: "CN[C@@H]1[C@H](O[C@H]2[C@H](O[C@H]3[C@H](O)[C@@H](O)[C@H](N=C(N)N)[C@@H](O)[C@@H]3N=C(N)N)O[C@@H](C)[C@]2(O)C=O)O[C@@H](CO)[C@H](O)[C@H]1O" What is its recorded log10 of MIC?
OUTPUT: 1.45

INPUT: Now this one: "O=C(Nc1cccc(Br)c1)[C@H](O)[C@@H](O)C(=O)N1CCC2(CCNC2=O)CC1"
OUTPUT: 3.06

INPUT: Now this one: "O=C(Nc1ccc(Cl)cc1)[C@H](O)[C@@H](O)C(=O)N1CCC2(CCNC2=O)CC1"
OUTPUT: 3.11

INPUT: Now this one: "COc1cccc(NC(=O)[C@H](O)[C@@H](O)C(=O)N2CCC3(CCNC3=O)CC2)c1"
OUTPUT: 2.52

INPUT: Now this one: "COc1ccccc1NC(=O)[C@H](O)[C@@H](O)C(=O)N1CCC2(CCNC2=O)CC1"
OUTPUT: 2.81

INPUT: Now this one: "O=C(Nc1ccc(F)cc1)[C@H](O)[C@@H](O)C(=O)N1CCC2(CCNC2=O)CC1"
OUTPUT: 2.53

INPUT: Now this one: "O=C(Nc1ccc(Cl)cc1Cl)[C@H](O)[C@@H](O)C(=O)N1CCC2(CCNC2=O)CC1"
OUTPUT: 2.48

INPUT: Now this one: "C[C@H]1COc2c(N3CCN(C)CC3)c(F)cc3c(=O)c(C(=O)O)cn1c23"
OUTPUT: 1.04

INPUT: Now this one: "O=C(Nc1ccc([N+](=O)[O-])cc1)[C@H](O)[C@@H](O)C(=O)N1CCC2(CCNC2=O)CC1"
OUTPUT: 3.10

INPUT: Now this one: "COc1ccc(NC(=O)[C@H](O)[C@@H](O)C(=O)N2CCC3(CCNC3=O)CC2)cc1"
OUTPUT: 3.12

INPUT: Now this one: "O=C(Nc1ccc(F)c(F)c1)[C@H](O)[C@@H](O)C(=O)N1CCC2(CCNC2=O)CC1"
OUTPUT: 2.81

INPUT: Now this one: "O=C(Nc1ccccc1)[C@H](O)[C@@H](O)C(=O)N1CCC2(CCNC2=O)CC1"
OUTPUT: 2.85

The reported measurements were obtained from ChEMBL document CHEMBL4359915.
